# system tested: T1, recombinant human TfR1 (transferrin receptor 1) (human, UniProt P02786 89-760)
# T1 construct: Bought recombinant His-tagged protein; also called hTfR1
# T1 sequence (P02786 89-760 limits assumed): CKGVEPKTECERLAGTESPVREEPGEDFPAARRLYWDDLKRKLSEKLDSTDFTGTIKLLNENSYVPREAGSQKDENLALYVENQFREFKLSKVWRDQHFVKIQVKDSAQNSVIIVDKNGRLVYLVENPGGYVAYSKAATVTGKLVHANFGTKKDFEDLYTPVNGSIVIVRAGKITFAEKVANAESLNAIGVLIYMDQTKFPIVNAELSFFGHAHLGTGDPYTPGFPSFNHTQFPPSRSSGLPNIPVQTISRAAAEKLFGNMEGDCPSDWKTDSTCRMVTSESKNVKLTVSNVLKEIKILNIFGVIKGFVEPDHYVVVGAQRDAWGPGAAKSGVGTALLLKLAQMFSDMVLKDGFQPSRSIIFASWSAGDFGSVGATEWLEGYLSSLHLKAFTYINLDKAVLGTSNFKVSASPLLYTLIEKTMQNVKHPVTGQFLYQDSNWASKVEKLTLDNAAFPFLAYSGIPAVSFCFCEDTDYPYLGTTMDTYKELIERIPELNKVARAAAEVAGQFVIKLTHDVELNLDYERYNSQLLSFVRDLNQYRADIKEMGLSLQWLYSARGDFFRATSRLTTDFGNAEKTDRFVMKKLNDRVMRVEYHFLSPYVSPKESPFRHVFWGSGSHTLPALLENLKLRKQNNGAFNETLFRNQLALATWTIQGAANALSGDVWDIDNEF
# method: phage ELISA
measured endpoint: binding result

INSERT INTO assay_data (binder, measurement) VALUES
  ('SEQ ID NO 8 (VNAR clone displayed on phage) (VNAR, shark VNAR domain on M13 phage; coat-protein fusion not described) VNAR: ARVDQTPQTITKETGESLTINCVLRDSNCELSSTYWYRKKSGSTNEARISKGGRYVETVNSGSKSFSLRINDLTVEDSGTYRCNVQYFLCHFVGDVYGDGTAVTVNA', 'binds'),
  ('SEQ ID NO 42 (VNAR clone displayed on phage) (VNAR, shark VNAR domain on M13 phage; coat-protein fusion not described) VNAR: ARVDQTPRSVTKETGESLTINCVLRDASYALGSTCWYRKKSGSTNEESISKGGRYVETVNSGSKSFSLRINDLTVEDGGTYRCGVCEMQLIAVDSCDHTLDDGLCGGVYAACGDGTAVTVNA', 'binds');
